METHOD_SUMMARY: Half-life in human liver microsomes
Format: in vitro ADME
CONDITION_NOTES: human, liver microsomes, NADPH, 37° C., read-out: G: half-life human liver microsomes
Exercise: state measured half-life at 1 µM for each of the compounds provided.
Give bare numbers, in min.

Solved entries (count: 5):
[
  {
    "COMPOUND": "CC(C)(C)c1cc(-c2cncc(-c3ccc(C(=O)N4C[C@@H](O)[C@@H](O)C4)cc3Cl)c2)ccn1",
    "half-life at 1 µM / min": 27.1
  },
  {
    "COMPOUND": "CC(C)(C)c1cc(-c2cccc(-c3ccc(NC(=O)N4CCC(O)CC4)cc3Cl)c2)ccn1",
    "half-life at 1 µM / min": 72.1
  },
  {
    "COMPOUND": "CC1(c2cc(-c3cncc(-c4ccc(C(=O)N5CCC(O)CC5)cc4Cl)c3)ccn2)OCCO1",
    "half-life at 1 µM / min": 9.74
  },
  {
    "COMPOUND": "CC(C)(C)c1cc(-c2cncc(-c3ccc(NC(=O)N4CCC(O)CC4)cc3Cl)c2)ccn1",
    "half-life at 1 µM / min": 19.6
  },
  {
    "COMPOUND": "CC(C)(C)c1cc(-c2cncc(-c3ccc(C(=O)N4CC5(CC(O)C5)C4)cc3Cl)c2)ccn1",
    "half-life at 1 µM / min": 1.79
  }
]

Batch: half-life at 1 µM for all items listed.
1. CC(C)(O)c1cc(-c2cncc(-c3ccc(C(=O)N4CCC(O)CC4)cc3Cl)c2)ccn1 [drawing 356]
2. CC1(O)CN(C(=O)c2ccc(-c3cncc(-c4ccnc(C(C)(C)C)c4)c3)c(Cl)c2)C1
3. CC(C)(C)c1cc(-c2cncc(-c3ccc(C(=O)N4CC(CO)C4)cc3Cl)c2)ccn1
4. CC(C)(C)c1cc(-c2cccc(-c3ccc(NS(C)(=O)=O)cc3Cl)c2)ccn1

[reply]
1. 541
2. 6.72
3. 1.74
4. 90.8

Batch: half-life at 1 µM for all items listed.
1. O=C(c1ccc(-c2cncc(-c3ccnc(C4CC4)c3)c2)c(Cl)c1)N1CCC(O)CC1
2. CC(C)(C)c1cc(-c2cncc(-c3ccc(C(=O)N4CC[C@H](O)C4)cc3Cl)c2)ccn1
3. CC(C)(C)c1cc(-c2cncc(-c3ccc(NS(C)(=O)=O)cc3Cl)c2)ccn1 [drawing 346]
4. CC(C)OC(=O)Nc1ccc(-c2cncc(-c3ccnc(C4CC4)c3)c2)c(Cl)c1
5. CC1(O)CCN(C(=O)c2ccc(-c3cncc(-c4ccnc(C(C)(C)C)c4)c3)c(Cl)c2)C1 (stereo not drawn)
6. CC(C)(C)c1cc(-c2cncc(-c3ccc(C(=O)N4CCC(F)CC4)cc3Cl)c2)ccn1
7. CC(C)(C)c1cc(-c2cncc(-c3ccc(C(=O)N4CCC(O)(O)C(F)(F)C4)cc3Cl)c2)ccn1
8. CC(C)(C)c1cc(-c2cncc(-c3ccc(C(=O)N4CCC(O)C(O)CC4)cc3Cl)c2)ccn1 (stereo not drawn)

[reply]
1. 36.5
2. 14.4
3. 19.8
4. 120
5. 12.9
6. 11
7. 43.7
8. 27.7

Batch: half-life at 1 µM for all items listed.
1. CC1(O)CCN(C(=O)c2ccc(-c3cncc(-c4ccnc(C(C)(C)C)c4)c3)c(Cl)c2)CC1 [drawing 369]
2. CC(C)(C)c1cc(-c2cncc(-c3ccc(C(=O)N4CCC(O)C(F)(F)C4)cc3Cl)c2)ccn1 (stereo not drawn)

[reply]
[13, 28.1]

Batch: half-life at 1 µM for all items listed.
1. O=C(c1ccc(-c2cncc(-c3ccnc(C4CC4)c3)c2)c(Cl)c1)N1CCC[C@H]1CO
2. CC(C)(CNC(=O)c1ccc(-c2cncc(-c3ccnc(C(C)(C)C)c3)c2)c(Cl)c1)C(=O)O
3. CC(C)(C)c1cc(-c2cncc(-c3ccc(NC(=O)OCCN4CCCC4)cc3Cl)c2)ccn1
4. CC(C)(C)c1cc(-c2cc(F)cc(-c3ccc(C(=O)N4CCC(O)CC4)cc3Cl)c2)ccn1
5. CS(=O)(=O)Nc1ccc(-c2cncc(-c3ccnc(C4CC4)c3)c2)c(Cl)c1
6. COC1CCCN(C(=O)c2ccc(-c3cncc(-c4ccnc(C(C)(C)C)c4)c3)c(Cl)c2)C1 (stereo not drawn) [drawing 375]
7. Cc1cc(C(=O)N2CCC(O)CC2)ccc1-c1cncc(-c2ccnc(C(C)(C)C)c2)c1 [drawing 337]

[reply]
1. 16.2
2. 2.98
3. 53.2
4. 74.6
5. 112
6. 2.02
7. 13.9

[ask] Fill blank: measured half-life at 1 µM of the compound `CC(C)(C)c1cc(-c2cncc(-c3ccc(C(=O)N(CCCO)CCCO)cc3Cl)c2)ccn1` is ____.
[reply] 9.51
